Listed here are compounds together with their documented IC50.
Tested on: human embryoid bodies (hEB)
Assay: Cytotoxicity in human embryoid bodies, day 15 (MTT / CyQUANT)
Conditions: Homo sapiens, 360 h, read-out: IC50-hEB
Report as a plain number; the unit µg/mL is understood.

Reference set (5 entries):
[
  {
    "compound": "CS(=O)(=O)OCCCCOS(C)(=O)=O",
    "IC50 (µg/mL)": 0.38
  },
  {
    "compound": "NC(=O)NO [Hydroxyurea, hydroxyurea]",
    "IC50 (µg/mL)": 2.33
  },
  {
    "compound": "O=c1[nH]cc(F)c(=O)[nH]1",
    "IC50 (µg/mL)": 0.00114
  },
  {
    "compound": "Cn1c(=O)c2c(ncn2C)n(C)c1=O",
    "IC50 (µg/mL)": 81.6
  },
  {
    "compound": "COc1ccc2c(c1)c(CC(=O)O)c(C)n2C(=O)c1ccc(Cl)cc1",
    "IC50 (µg/mL)": 4.49
  }
]

Query compound follows.
IC50 reported for this compound O=C1NS(=O)(=O)c2ccccc21 : 1550

====

Test system: human embryonic stem cells (hES)
Assay: Cytotoxicity in undifferentiated human embryonic stem cells, day 15 (FACS with PI / CyQUANT)
Assay type: cell-based
Conditions: Homo sapiens, Embryonic stem cell, 360 h; Table 3; mean of 3 experiments; day 15; read-out: IC50-hES
endpoint: IC50 (µg/mL)
Unit µg/mL implied. Number only.

Example molecules with recorded IC50:
[
  {
    "molecule": "CS(=O)(=O)OCCCCOS(C)(=O)=O",
    "system_name": "human embryonic stem cells (hES)",
    "value_observed": 2.1
  },
  {
    "molecule": "Cn1c(=O)c2c(ncn2C)n(C)c1=O",
    "system_name": "human embryonic stem cells (hES)",
    "value_observed": 110
  },
  {
    "molecule": "COc1ccc2c(c1)c(CC(=O)O)c(C)n2C(=O)c1ccc(Cl)cc1",
    "system_name": "human embryonic stem cells (hES)",
    "value_observed": 73.4
  }
]

Entry O=c1[nH]cc(F)c(=O)[nH]1 , IC50 reported as 0.546

GET /value?item= NC(=O)NO [Hydroxyurea, hydroxyurea] &field=IC50 returns 2.6

Lab note: measured IC50 of O=C1NS(=O)(=O)c2ccccc21 was 1920

====

This listing pairs compounds with measured IC50.
Test system: human foreskin fibroblasts (HFF)
Assay: Cytotoxicity in human foreskin fibroblasts, day 15 (MTT / CyQUANT)
Type: cell-based
Details: Homo sapiens, Fibroblast; Table 4; CyQuant cell viability assay; read-out: Human EST IC50 - HFF
Write down the numeric answer in µg/mL and omit the unit.

Some entries whose results are on file:
[
  {
    "compound": "CS(=O)(=O)OCCCCOS(C)(=O)=O [Busulfan, busulfan]",
    "IC50 (µg/mL)": 2.7
  },
  {
    "compound": "COc1ccc2c(c1)c(CC(=O)O)c(C)n2C(=O)c1ccc(Cl)cc1 [Indomethacin, indomethacin]",
    "IC50 (µg/mL)": 33.5
  },
  {
    "compound": "Cn1c(=O)c2c(ncn2C)n(C)c1=O [Caffeine, caffeine]",
    "IC50 (µg/mL)": 79.3
  }
]

# input for lookup
Record for NC(=O)NO [Hydroxyurea, hydroxyurea] under target or system human foreskin fibroblasts (HFF): IC50 reported as 8.9
